System: A549-ACE2
PROCEDURE TEXT: drug-induced phospholipidosis relative to tamoxifen; higher = more phospholipidosis
CONDITION DETAILS: 6.66667 µM; 24 h
Measured drug-induced phospholipidosis accompanies every entry in the list below.

{"COMPOUND": "O=C(OCC(O)CO)c1ccccc1Nc1ccnc2cc(Cl)ccc12 (centres undefined) [glafenine]", "drug-induced phospholipidosis": "1.93%"}
{"COMPOUND": "CC1(C)CC[C@]2(C(=O)O)CC[C@]3(C)[C@H](C(=O)C=C4[C@@]5(C)C=C(C#N)C(=O)C(C)(C)[C@@H]5CC[C@]43C)[C@@H]2C1 [bardoxolone]", "drug-induced phospholipidosis": "18.2%"}
{"COMPOUND": "Cc1cc(Nc2ccc(NC(=O)c3ccc(Nc4ccnc5ccccc45)cc3)cc2)nc(N)n1 [SGI-1027]", "drug-induced phospholipidosis": "55.8%"}
{"COMPOUND": "CN1CCC[C@@H](CC2c3ccccc3Sc3ccccc32)C1 (racemic) [metixene]", "drug-induced phospholipidosis": "78.2%"}

----------
Measured cell viability accompanies every entry in the list below.
System: U2OS
PROCEDURE TEXT: cell viability relative to DMSO; higher = less toxic
CONDITION DETAILS: 72 h; 1 nM

{"COMPOUND": "O=C(O)CN1C(=O)c2cccc3cccc(c23)C1=O [alrestatin]", "OUTPUT UNIT": "%", "cell viability": 98.9}
{"COMPOUND": "O=C(Nc1ccc(S(=O)(=O)C(F)(F)F)cc1)C1=CCN(c2ncccc2C(F)(F)F)CC1", "OUTPUT UNIT": "%", "cell viability": 96.1}
{"COMPOUND": "CN1CCC[C@@H](CC2c3ccccc3Sc3ccccc32)C1 (racemic) [metixene]", "OUTPUT UNIT": "%", "cell viability": 105}
{"COMPOUND": "O=C1NCN(c2ccccc2)C12CCN(CC1COc3ccccc3O1)CC2 (stereo unspecified) [spiroxatrine]", "OUTPUT UNIT": "%", "cell viability": 106}
{"COMPOUND": "NC(=O)c1cn(Cc2c(F)cccc2F)nn1 [rufinamide]", "OUTPUT UNIT": "%", "cell viability": 99.6}
{"COMPOUND": "O=C(O)COc1cccc(-c2ocnc2-c2nc(-c3ccccc3)c(-c3ccccc3)o2)c1", "OUTPUT UNIT": "%", "cell viability": 102}
{"COMPOUND": "CN1CCC(=C2c3ccccc3C=Cc3ccccc32)CC1 [cyproheptadine]", "OUTPUT UNIT": "%", "cell viability": 97.6}
{"COMPOUND": "CN1CCC(NC(=O)c2cc(-c3c(O)cc(O)cc3Oc3ccc([N+](=O)[O-])cc3)on2)CC1 [NMS-E973]", "OUTPUT UNIT": "%", "cell viability": 94.2}
{"COMPOUND": "CCc1ccccc1OC[C@@H](O)CN[C@H]1CCCc2ccccc21", "OUTPUT UNIT": "%", "cell viability": 96.6}
{"COMPOUND": "CN(C)C(=O)c1ccc(S(=O)(=O)c2ccc(NC(=O)[C@@](C)(O)C(F)(F)F)c(Cl)c2)cc1 [AZD7545]", "OUTPUT UNIT": "%", "cell viability": 94.5}
{"COMPOUND": "C[C@@]12CC[C@@H]3[C@@](CC[C@H]4[C@@]3(C)CCC[C@@]4(C)C(=O)O)(CC1=O)C2 [isosteviol]", "OUTPUT UNIT": "%", "cell viability": 101}
